target: fusion protein PRN
Sequence (chain, as listed by the source): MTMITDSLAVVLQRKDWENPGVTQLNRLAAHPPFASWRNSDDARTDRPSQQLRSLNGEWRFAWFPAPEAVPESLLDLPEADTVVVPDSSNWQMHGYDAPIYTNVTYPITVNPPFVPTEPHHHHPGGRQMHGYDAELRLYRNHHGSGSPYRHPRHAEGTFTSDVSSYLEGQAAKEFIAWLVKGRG
Assay Metric: relative cleavage efficiency

Record excerpt, results attached:
So what's the measured relative cleavage efficiency for this one? OmpT protease variant OmpT D97T (protein) STETLSFTPDNINADISLGTLSGKTKERVYLAEEGGRKVSQLDWKFNNAAIIKGAINWDLMPQISIGAAGWTTLGSRGGNMVDQDWMDSSNPGTWTTESRHPDTQLNYANEFDLNIKGWLLNEPNYRLGLMAGYQESRYSFTARGGSYIYSSEEGFRDDIGSFPNGERAIGYKQRFKMPYIGLTGSYRYEDFELGGTFKYSGWVESSDNDEHYDPGKRITYRSKVKDQNYYSVAVNAGYYVTPNAKVYVEGAWNRVTNKKGNTSLYDHNNNTSDYSKNGAGIENYNFITTAGLKYTF
< 3%

So what's the measured relative cleavage efficiency for this one? OmpT protease variant OmpT D97H (protein) STETLSFTPDNINADISLGTLSGKTKERVYLAEEGGRKVSQLDWKFNNAAIIKGAINWDLMPQISIGAAGWTTLGSRGGNMVDQDWMDSSNPGTWTHESRHPDTQLNYANEFDLNIKGWLLNEPNYRLGLMAGYQESRYSFTARGGSYIYSSEEGFRDDIGSFPNGERAIGYKQRFKMPYIGLTGSYRYEDFELGGTFKYSGWVESSDNDEHYDPGKRITYRSKVKDQNYYSVAVNAGYYVTPNAKVYVEGAWNRVTNKKGNTSLYDHNNNTSDYSKNGAGIENYNFITTAGLKYTF
3.5%

So what's the measured relative cleavage efficiency for this one? OmpT protease variant OmpT D97Y (protein) STETLSFTPDNINADISLGTLSGKTKERVYLAEEGGRKVSQLDWKFNNAAIIKGAINWDLMPQISIGAAGWTTLGSRGGNMVDQDWMDSSNPGTWTYESRHPDTQLNYANEFDLNIKGWLLNEPNYRLGLMAGYQESRYSFTARGGSYIYSSEEGFRDDIGSFPNGERAIGYKQRFKMPYIGLTGSYRYEDFELGGTFKYSGWVESSDNDEHYDPGKRITYRSKVKDQNYYSVAVNAGYYVTPNAKVYVEGAWNRVTNKKGNTSLYDHNNNTSDYSKNGAGIENYNFITTAGLKYTF
less than 3.0%

So what's the measured relative cleavage efficiency for this one? OmpT protease variant OmpT D97C (protein) STETLSFTPDNINADISLGTLSGKTKERVYLAEEGGRKVSQLDWKFNNAAIIKGAINWDLMPQISIGAAGWTTLGSRGGNMVDQDWMDSSNPGTWTCESRHPDTQLNYANEFDLNIKGWLLNEPNYRLGLMAGYQESRYSFTARGGSYIYSSEEGFRDDIGSFPNGERAIGYKQRFKMPYIGLTGSYRYEDFELGGTFKYSGWVESSDNDEHYDPGKRITYRSKVKDQNYYSVAVNAGYYVTPNAKVYVEGAWNRVTNKKGNTSLYDHNNNTSDYSKNGAGIENYNFITTAGLKYTF
< 3%

So what's the measured relative cleavage efficiency for this one? OmpT protease variant OmpT D97G (protein) STETLSFTPDNINADISLGTLSGKTKERVYLAEEGGRKVSQLDWKFNNAAIIKGAINWDLMPQISIGAAGWTTLGSRGGNMVDQDWMDSSNPGTWTGESRHPDTQLNYANEFDLNIKGWLLNEPNYRLGLMAGYQESRYSFTARGGSYIYSSEEGFRDDIGSFPNGERAIGYKQRFKMPYIGLTGSYRYEDFELGGTFKYSGWVESSDNDEHYDPGKRITYRSKVKDQNYYSVAVNAGYYVTPNAKVYVEGAWNRVTNKKGNTSLYDHNNNTSDYSKNGAGIENYNFITTAGLKYTF
less than 3.0%

Now look at this entry.
So what's the measured relative cleavage efficiency for this one? OmpT protease variant OmpT D97A (protein) STETLSFTPDNINADISLGTLSGKTKERVYLAEEGGRKVSQLDWKFNNAAIIKGAINWDLMPQISIGAAGWTTLGSRGGNMVDQDWMDSSNPGTWTAESRHPDTQLNYANEFDLNIKGWLLNEPNYRLGLMAGYQESRYSFTARGGSYIYSSEEGFRDDIGSFPNGERAIGYKQRFKMPYIGLTGSYRYEDFELGGTFKYSGWVESSDNDEHYDPGKRITYRSKVKDQNYYSVAVNAGYYVTPNAKVYVEGAWNRVTNKKGNTSLYDHNNNTSDYSKNGAGIENYNFITTAGLKYTF
< 3%
